System: PRKCI;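 note: KINOMEscan kinase panel screen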
Conditions: concentration: 1 μM, replicates: in singlicate; n = 1
Result type: %Inh

What value of %Inh has been reported for the following molecule? Fc1ccc(-c2nc[nH]c2-c2ccncc2)cc1
0%

Subsequent entry: CC(=O)c1c(C)c2cnc(Nc3ccc(N4CCNCC4)cn3)nc2n(C2CCCC2)c1=O
5%

Subsequent entry: Cc1nccc(-c2c(-c3ccc(F)cc3)ncn2CCCN2CCOCC2)n1.Cl
21%

Subsequent entry: Fc1ccc(-c2nc3n(c2-c2ccncc2)CCS3)cc1
1%

Subsequent entry: Cc1ccccc1Cn1ccn2c(=O)cc(N3CCOCC3)nc12
0%

Subsequent entry: Cc1ccc(NC(=O)Nc2ccccc2F)cc1-c1ccc(C(=O)Nc2ccncc2)cc1
0%

Subsequent entry: Cn1cncc1-c1cc2c(Nc3ccc(OCc4ccccc4)cc3)ncnc2cn1
12%

Subsequent entry: Cc1ccc(-c2nc(Nc3ccncc3)c3ccccc3n2)s1
20%

Subsequent entry: CNc1cc(-c2ccc3c(N)n[nH]c3c2)nc(N)n1
27%

Subsequent entry: c1ccc(-c2ccnc3[nH]ccc23)cc1
13%

Subsequent entry: CNCc1ccc2nc(NC(=O)c3ccc(C(C)(C)C)cc3)cn2c1
20%

Subsequent entry: COc1cccc(C2=C(Nc3cc(Cl)c(O)c(Cl)c3)C(=O)NC2=O)c1
12%

Subsequent entry: O=C1NC(=O)C(c2ccc(Cl)cc2)=C1Nc1ccc(O)cc1
0%

Subsequent entry: Nc1nccc(-c2c(-c3ccc(F)cc3)ncn2C2CCN(Cc3ccccc3)CC2)n1
0%

Subsequent entry: CS(=O)(=O)Cc1ccc(Nc2nccc(-c3c(-c4cccc(NC(=O)C5CCCCC5)c4)nn4ncccc34)n2)cc1
23%

Subsequent entry: NS(=O)(=O)c1cccc(N/C=C2\C(=O)Nc3ccc(S(=O)(=O)Cc4c(Cl)cccc4Cl)cc32)c1
6%

Subsequent entry: Cc1ccc(NC(=O)Nc2ccc(Cl)c(C(F)(F)F)c2)cc1-c1ccc(C(=O)Nc2ccncc2)cc1
0%

Subsequent entry: Cc1c(Cn2c3ccccc3n3c(=O)cc(N4CCOCC4)nc23)cccc1C(F)(F)F
9%

Subsequent entry: Cn1cncc1C(=O)NC1CCN(c2ccnc(Nc3ccc(F)cc3)n2)C1 (stereo not drawn)
7%

Subsequent entry: CS(=O)(=O)CCNCc1nc(-c2ccc3ncnc(Nc4ccc5c(cnn5Cc5ccccc5)c4)c3c2)cs1.Cl.Cl
23%

Subsequent entry: COC(=O)C(Cc1ccccc1)NC(=O)NC1CCN(c2ccnc(Nc3ccc(F)cc3)n2)C1 (stereo not drawn)
22%

Subsequent entry: COc1ccc(Nc2nccc(NCCNC(=O)Nc3cc(C)ccc3C)n2)cc1
22%

Subsequent entry: Nc1ncnc2occ(-c3ccc4c(c3)CCN4C(=O)Cc3cc(F)ccc3F)c12
23%

Subsequent entry: COc1cccc(NC(=O)Nc2ccc(C)c(-c3ccc(C(=O)Nc4ccncc4)cc3)c2)c1
16%

Subsequent entry: O=c1cc(N2CCOCC2)nc2n(Cc3cccc(Cl)c3Cl)c3ccccc3n12
8%

Subsequent entry: COc1ccc2cc(-c3nc(-c4ccccc4C(C)C)[nH]c3-c3ccncc3)ccc2c1
15%

Subsequent entry: COc1ccc(Nc2nccc(-c3ccc(NC(=O)c4cc5cc(F)ccc5[nH]4)cc3)n2)cc1
15%

Subsequent entry: Cc1ccccc1-c1cc(-c2c[nH]nc2-c2ccccn2)ccn1
8%

Subsequent entry: Fc1ccc(-c2nn3cccc(F)c3c2-c2ccncc2)cc1
39%

Subsequent entry: COc1ccc(Nc2nccc(N3CCC(NC(=O)C(C)c4ccc(Cl)cc4)C3)n2)cc1 (stereo not drawn)
0%

Subsequent entry: CC(C)c1cc(-c2ccc3c(N)n[nH]c3c2)nc(N)n1
10%

Subsequent entry: Cc1cnc(N)c(/C=C/c2cncc(C(=O)NCCc3ccc(Cl)cc3Cl)c2)c1.Cl
23%

Subsequent entry: CCn1c(-c2c(N)noc2C)nc2cnccc21
7%

Subsequent entry: CC(=O)c1cccc(NC(=O)NC2CCN(c3ccnc(Nc4ccc(F)cc4)n3)C2)c1 (stereo not drawn)
11%

Subsequent entry: COc1cccc(CNC(=O)NC2CCN(c3ccnc(Nc4ccc(F)cc4)n3)C2)c1 (stereo not drawn)
10%

Subsequent entry: Cc1ccc(NC(=O)Nc2ccccc2)cc1-c1ccc(C(=O)Nc2ccncc2)cc1
22%
